molecular target: EGFR L858R/T790M/C797S (Homo sapiens, UniProt P00533, C797S/L858R/T790M); assay: Biochemical EGFR kinase assay (Lance Ultra TR-FRET), triple mutant L858R/T790M/C797S; conditions: IC50 L858R/T790M/C797S, 100 μM ATP
Sequence (P00533 25-1210 T790M/C797S/L858R): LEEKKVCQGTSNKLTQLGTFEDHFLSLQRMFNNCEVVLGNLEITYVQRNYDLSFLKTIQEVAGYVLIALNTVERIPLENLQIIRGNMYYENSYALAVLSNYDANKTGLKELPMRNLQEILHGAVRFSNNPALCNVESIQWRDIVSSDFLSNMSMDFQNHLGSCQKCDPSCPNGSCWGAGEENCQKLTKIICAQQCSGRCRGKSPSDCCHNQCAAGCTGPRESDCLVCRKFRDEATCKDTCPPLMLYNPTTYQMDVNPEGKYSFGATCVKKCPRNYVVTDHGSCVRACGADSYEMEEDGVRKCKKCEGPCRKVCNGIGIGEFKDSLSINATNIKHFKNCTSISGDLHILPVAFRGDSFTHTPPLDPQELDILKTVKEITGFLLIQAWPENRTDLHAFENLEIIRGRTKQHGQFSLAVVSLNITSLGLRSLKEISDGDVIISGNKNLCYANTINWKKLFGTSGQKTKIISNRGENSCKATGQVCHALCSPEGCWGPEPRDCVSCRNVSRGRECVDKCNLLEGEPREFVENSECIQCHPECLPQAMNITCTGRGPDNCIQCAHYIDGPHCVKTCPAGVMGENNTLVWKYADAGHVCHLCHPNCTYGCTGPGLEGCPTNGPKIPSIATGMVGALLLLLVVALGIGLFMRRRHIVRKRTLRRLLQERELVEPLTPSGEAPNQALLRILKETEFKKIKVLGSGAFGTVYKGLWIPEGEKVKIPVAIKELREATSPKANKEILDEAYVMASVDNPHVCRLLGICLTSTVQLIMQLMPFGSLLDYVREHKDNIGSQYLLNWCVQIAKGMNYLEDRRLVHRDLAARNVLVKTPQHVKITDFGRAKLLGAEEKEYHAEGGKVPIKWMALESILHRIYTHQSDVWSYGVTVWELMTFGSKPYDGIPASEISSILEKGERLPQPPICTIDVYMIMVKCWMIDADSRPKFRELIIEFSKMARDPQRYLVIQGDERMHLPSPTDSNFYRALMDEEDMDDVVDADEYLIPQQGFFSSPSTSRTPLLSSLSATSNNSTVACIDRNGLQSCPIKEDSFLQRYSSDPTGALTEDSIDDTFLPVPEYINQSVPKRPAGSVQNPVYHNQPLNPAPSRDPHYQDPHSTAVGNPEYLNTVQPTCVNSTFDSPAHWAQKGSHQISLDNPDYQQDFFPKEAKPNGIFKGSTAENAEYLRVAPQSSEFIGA
IC50 values for the compounds below.
quantityMeasured: IC50 (nM)

{"compound": "CN(C)CCOc1ccc(-c2cnc(Nc3ccnc(-c4cnn(S(=O)(=O)C5CC5)c4)n3)cc2N[C@H]2CC[C@@H](C(C)(C)O)CC2)nc1", "result": 0.3}
{"compound": "CN(C)CCOc1ccc(-c2cnc(Nc3ccnc(-c4cnn(S(=O)(=O)C5CC5)c4)n3)cc2N[C@H]2CC[C@@](C)(O)CC2)nc1", "result": 0.2}
{"compound": "O=S(=O)(C1CC1)n1cc(-c2nccc(Nc3cc(N[C@H]4CC[C@@H](CO)CC4)c(-c4cccc(F)n4)cn3)n2)cn1", "result": 0.3}
{"compound": "O=S(=O)(C1CC1)n1cc(-c2nccc(Nc3cc(N[C@H]4CC[C@@H](CO)CC4)c(-c4ccc(CC(F)(F)F)cn4)cn3)n2)cn1", "result": 2.9}
{"compound": "O=S(=O)(C1CC1)n1cc(-c2nccc(Nc3cc(N[C@H]4CCC[C@H](CO)C4)c(-c4ccc(C(O)C(F)(F)F)cn4)cn3)n2)cn1 (stereo partly drawn)", "result": 1}
{"compound": "C[C@]1(O)CC[C@@H](Nc2cc(Nc3ccnc(-c4cnn(S(=O)(=O)C5CC5)c4)n3)ncc2-c2cccc(F)n2)CC1", "result": 0.4}
{"compound": "CN1CC(Oc2ccc(-c3cnc(Nc4ccnc(-c5cnn(S(=O)(=O)C6CC6)c5)n4)cc3N[C@H]3CC[C@@](C)(O)CC3)nc2)C1", "result": 0.1}
{"compound": "CN(C)S(=O)(=O)c1ccc(-c2cnc(Nc3ccnc(-c4cnn(S(=O)(=O)C5CC5)c4)n3)cc2N[C@H]2CC[C@@H](CO)CC2)nc1", "result": 0.6}
{"compound": "CN(C)CCNc1ccnc(-c2cnc(Nc3ccnc(-c4cnn(S(=O)(=O)C5CC5)c4)n3)cc2N[C@H]2CC[C@@](C)(O)CC2)c1", "result": 0.5}
{"compound": "CC(C)(O)c1ccc(-c2cnc(Nc3ccnc(-c4cnn(S(=O)(=O)C5CC5)c4)n3)cc2N[C@H]2CC[C@@](C)(O)CC2)nc1", "result": 0.2}
{"compound": "O=S(=O)(C1CC1)n1cc(-c2nccc(Nc3cc(N[C@H]4CC[C@@H](CO)CC4)c(-c4ccnc(N[C@H]5CC[C@@H](CO)CC5)n4)cn3)n2)cn1", "result": 0.5}
{"compound": "CN1CCN(S(=O)(=O)c2ccc(-c3cnc(Nc4ccnc(-c5cnn(S(=O)(=O)C6CC6)c5)n4)cc3N[C@H]3CC[C@@H](CO)CC3)nc2)CC1", "result": 0.8}
